measured-target: hemagglutinin (HA) of influenza B/Harbin/7/94 (Yamagata) (influenza B virus)
assay-details: cell-based or functional assay
// values below are reported VNA IC50

SD3054 (VHH) VHH: EVQLVESGGGLVQPGGSLRLSCAASGLSLDTYAMSWFRQAPGKEREGITCISSGHGITYYADSVKGRFTISRDNSKNTLYLQMNSLQPEDTARYYCATESRYYCSDNWPAPQRYIYWGQGTQVTVSS    > 1000 nM

// next entry
Fill in the blank: the reported VNA IC50 of SD3073 (VHH) VHH: EVQLVESGGGLVQPGGSLRLSCAISGLSLDTYAVGWFRQAPGKEREGVSCISSGHGMTYYADSVKGRFTVSTDNSKNTLYLQMNSLRAEDTAVYYCATESRYYCSDNWPAPQRYIYWGQGTLVTVSS is ____.
> 1000 nM
